tested.target: Human plasma kallikrein (Homo sapiens (Human))
Sequence (P03952 391-638): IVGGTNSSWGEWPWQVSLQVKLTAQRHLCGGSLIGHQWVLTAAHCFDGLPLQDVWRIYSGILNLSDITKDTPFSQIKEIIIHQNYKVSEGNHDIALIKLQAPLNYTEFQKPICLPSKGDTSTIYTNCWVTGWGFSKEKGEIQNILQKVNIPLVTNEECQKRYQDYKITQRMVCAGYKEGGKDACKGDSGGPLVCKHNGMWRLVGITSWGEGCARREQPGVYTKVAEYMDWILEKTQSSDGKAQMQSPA
Sequence (P03952 20-390 partner): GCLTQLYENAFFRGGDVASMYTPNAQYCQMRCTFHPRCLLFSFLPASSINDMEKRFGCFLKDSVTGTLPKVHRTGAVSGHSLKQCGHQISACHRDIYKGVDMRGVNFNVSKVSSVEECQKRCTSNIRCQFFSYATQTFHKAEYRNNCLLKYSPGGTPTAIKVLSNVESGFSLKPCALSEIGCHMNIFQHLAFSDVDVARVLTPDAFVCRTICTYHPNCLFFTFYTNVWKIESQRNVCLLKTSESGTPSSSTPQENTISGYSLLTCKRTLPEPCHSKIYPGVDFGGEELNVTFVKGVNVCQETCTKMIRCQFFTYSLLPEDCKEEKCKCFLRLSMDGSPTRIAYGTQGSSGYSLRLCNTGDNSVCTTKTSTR
procedure.summary: Determination of the IC50 for Plasma Kallikrein
Format: biochemical
test.conditions: 37° C., fluorogenic substrate H-DPro-Phe-Arg-AFC; read-out: IC50 (human PKal)
endpoint.label: IC50 (µM)

Cc1cc(C(=O)NCc2ccc(CN)cc2)c(C)n1Cc1cccc(-c2cccnc2)n1 0.492

[1] Cc1cc(C(=O)NCc2ccc(CN)cc2)c(C)n1Cc1ccc(OCc2ccccc2)cc1
[2] Cc1cc(C(=O)NCc2ccc(CN)cc2)c(C)n1Cc1csc(-c2cccs2)n1
[3] Cc1cc(C(=O)NCc2ccc(C3(N)CC3)cc2)c(C)n1Cc1csc(-c2ccccc2)n1
[4] Cc1cnn(Cc2ccc(Cn3cc(C(=O)NCc4ccc(CN)c(F)c4C)c(C(F)(F)F)n3)cc2)c1
Req: hey, can you rank those molecules up there by IC50? biggest number first please To answer, write out the labels according to the requested order.
Resp: 1, 2, 3, 4
